# study-target: HCV polymerase (Hepatitis C virus genotype 1b)
# Construct: (His)6 (C)
# method-summary: biochemical
# condition-info: polymerase assay of Biological Example 1; read-out: NS5B polymerase IC50
# strict inequality: IC50 < 50 nM yields 1, everything else yields 0

                                   molecule  cat
0  CCc1cc2c(C(=O)NC)c(-c3ccc(F)cc3)oc2nc1N(CCCC1CCCS1(=O)=O)S(C)(=O)=O (racemic) [Example 22.98]    1
1  CNC(=O)c1c(-c2ccc(C)cc2)oc2nc(N(CCCC3(C(=O)O)CCC3)S(C)(=O)=O)c(C3CC3)cc12    1

Prompt line: Threshold test, IC50 < 50 nM: CNC(=O)c1c(-c2ccc(F)cc2)oc2nc3c(cc12)C(C)CCCCCN3S(C)(=O)=O (stereo not shown)
Response line: 1

Prompt line: In plain terms, does CNC(=O)c1c(-c2ccc(C)cc2)oc2nc(N(CCCCC(=O)O)S(C)(=O)=O)c(CCO)cc12 come in under 50 nM for IC50?
Response line: 1

Prompt line: A record lists CNC(=O)c1c(-c2ccc(Cl)cc2)oc2nc(N(CCCS(C)(=O)=O)S(C)(=O)=O)c(I)cc12 . Is its IC50 below 50 nM?
Response line: 1

Prompt line: A record lists CCc1cc2c(C(=O)NC)c(-c3ccc(F)cc3)oc2nc1N(CCCS(=O)(=O)C1CC1)S(C)(=O)=O . Is its IC50 below 50 nM?
Response line: 0

Prompt line: Check if IC50 falls below 50 nM for CCc1cc2c(C(=O)NC)c(-c3ccc(F)cc3)oc2nc1N(CCc1scnc1C)S(C)(=O)=O .
Response line: 0

Values from patent US20120015907A1
